- system.name: HLA-A*02:01 (Homo sapiens, UniProt P04439, D140Y/D185E/D98H/E176V/E277Q/G131W/G231S/I119V/I121R/I166T/I218V/L300P/L318F/N151K/N90K/P208A/P217A/Q86G/Q94H/R138H/R169H/T345S)
- protocol.description: MHC binding assay (UV-ligand exchange, ELISA of stabilized MHC complexes)
- study.conditions: MHC class I binding score; binding to HLA-A*02:01 ranged by peptide exchange yield (UV-ligand exchange, ELISA)
measurement.label: Peptide exchange

Before answering, review these 10 worked examples.
[
  {
    "substance": "24 (SLSDGLEEV; listed as Homo sapiens) [compound 24]",
    "result": "″++″ (≥20% = ++)"
  },
  {
    "substance": "17 (GLLPGDRLVSV; listed as Homo sapiens) [compound 17]",
    "result": "″+++″ (≥50% = +++)"
  },
  {
    "substance": "437 (SMAPGLVIQAV; listed as Homo sapiens) [compound 437]",
    "result": "″+++″ (≥50% = +++)"
  },
  {
    "substance": "618 (VLFDSESIGIYV; listed as Homo sapiens) [compound 618]",
    "result": "″+++″ (≥50% = +++)"
  },
  {
    "substance": "15 (VLLTFKIFL; listed as Homo sapiens) [compound 15]",
    "result": "″++″ (≥20% = ++)"
  },
  {
    "substance": "561 (YLQLTQSEL; listed as Homo sapiens) [compound 561]",
    "result": "″+++″ (≥50% = +++)"
  },
  {
    "substance": "128 (YLFDDPLSAV; listed as Homo sapiens) [compound 128]",
    "result": "″++″ (≥20% = ++)"
  },
  {
    "substance": "101 (ILVGGGALATV; listed as Homo sapiens) [compound 101]",
    "result": "″+++″ (≥50% = +++)"
  },
  {
    "substance": "131 (FVPPVTVFPSL; listed as Homo sapiens) [compound 131]",
    "result": "″++″ (≥20% = ++)"
  },
  {
    "substance": "475 (LLLNEEALAQI; listed as Homo sapiens) [compound 475]",
    "result": "″+++″ (≥50% = +++)"
  }
]

Which measured Peptide exchange value corresponds to 64 (YAAPGGLIGV; listed as Homo sapiens) [compound 64] ? ″++″ (≥20% = ++)

Also need 102 (YLFESEGLVL; listed as Homo sapiens) [compound 102] , thanks. ″+++″ (≥50% = +++)

Also need 614 (LLLPDQPPYHL; listed as Homo sapiens) [compound 614] , thanks. ″+++″ (≥50% = +++)

----------
- system.name: HLA-A*02:01 (Homo sapiens, UniProt P04439, D140Y/D185E/D98H/E176V/E277Q/G131W/G231S/I119V/I121R/I166T/I218V/L300P/L318F/N151K/N90K/P208A/P217A/Q86G/Q94H/R138H/R169H/T345S)
- protocol.description: MHC binding assay (UV-ligand exchange, ELISA of stabilized MHC complexes)
- study.conditions: MHC class I binding score; binding to HLA-A*02:01 ranged by peptide exchange yield (UV-ligand exchange, ELISA)
- Excerpt: Candidate peptides for T cell based therapies according to the present invention were further tested for their MHC binding capacity (affinity). The individual peptide-MHC complexes were produced by UV-ligand exchange, where a UV-sensitive peptide is cleaved upon UV-irradiation, and exchanged with the peptide of interest as analyzed. Only peptide candidates that can effectively bind and stabilize the peptide-receptive MHC molecules prevent dissociation of the MHC complexes. […]
measurement.label: Peptide exchange

Before answering, review these 5 worked examples.
[
  {
    "substance": "192 (KMLDGASFTL; listed as Homo sapiens) [compound 192]",
    "Peptide exchange": "″+++″ (≥50% = +++)"
  },
  {
    "substance": "473 (AMATESILHFA; listed as Homo sapiens) [compound 473]",
    "Peptide exchange": "″+++″ (≥50% = +++)"
  },
  {
    "substance": "531 (YTLPIASSIRL; listed as Homo sapiens) [compound 531]",
    "Peptide exchange": "″+++″ (≥50% = +++)"
  },
  {
    "substance": "220 (LLQKFVPEI; listed as Homo sapiens) [compound 220]",
    "Peptide exchange": "″++″ (≥20% = ++)"
  },
  {
    "substance": "221 (ALYEEGLLL; listed as Homo sapiens) [compound 221]",
    "Peptide exchange": "″++″ (≥20% = ++)"
  }
]

Which measured Peptide exchange value corresponds to 98 (LIIDQADIYL; listed as Homo sapiens) [compound 98] ? ″+++″ (≥50% = +++)

Also need 328 (ALNDQVFEI; listed as Homo sapiens) [compound 328] , thanks. ″+++″ (≥50% = +++)

Also need 163 (ALDEMGDLLQL; listed as Homo sapiens) [compound 163] , thanks. ″+++″ (≥50% = +++)

Also need 264 (SLQEQLHSV; listed as Homo sapiens) [compound 264] , thanks. ″+++″ (≥50% = +++)

----------
- system.name: HLA-A*02:01 (Homo sapiens, UniProt P04439, D140Y/D185E/D98H/E176V/E277Q/G131W/G231S/I119V/I121R/I166T/I218V/L300P/L318F/N151K/N90K/P208A/P217A/Q86G/Q94H/R138H/R169H/T345S)
- protocol.description: MHC binding assay (UV-ligand exchange, ELISA of stabilized MHC complexes)
- study.conditions: MHC class I binding score; binding to HLA-A*02:01 ranged by peptide exchange yield (UV-ligand exchange, ELISA)
- Source text: Candidate peptides for T cell based therapies according to the present invention were further tested for their MHC binding capacity (affinity). The individual peptide-MHC complexes were produced by UV-ligand exchange, where a UV-sensitive peptide is cleaved upon UV-irradiation, and exchanged with the peptide of interest as analyzed. Only peptide candidates that can effectively bind and stabilize the peptide-receptive MHC molecules prevent dissociation of the MHC complexes. […]
measurement.label: Peptide exchange

Before answering, review these 4 worked examples.
[
  {
    "substance": "509 (FLFDTKPLIV; listed as Homo sapiens) [compound 509]",
    "result": "″+++″ (≥50% = +++)"
  },
  {
    "substance": "258 (ELAERVPAI; listed as Homo sapiens) [compound 258]",
    "result": "″++″ (≥20% = ++)"
  },
  {
    "substance": "521 (MLLTKLPTI; listed as Homo sapiens) [compound 521]",
    "result": "″+++″ (≥50% = +++)"
  },
  {
    "substance": "398 (KLLEEDGTIITL; listed as Homo sapiens) [compound 398]",
    "result": "″++″ (≥20% = ++)"
  }
]

Which measured Peptide exchange value corresponds to 270 (LLLDEEGTFSL; listed as Homo sapiens) [compound 270] ? ″++″ (≥20% = ++)

Also need 107 (FLQPVDDTQHL; listed as Homo sapiens) [compound 107] , thanks. ″+++″ (≥50% = +++)

Also need 233 (VLSETLYEL; listed as Homo sapiens) [compound 233] , thanks. ″++″ (≥20% = ++)

Also need 249 (LLDGFLVNV; listed as Homo sapiens) [compound 249] , thanks. ″+++″ (≥50% = +++)

Also need 240 (ILLEQAFYL; listed as Homo sapiens) [compound 240] , thanks. ″+++″ (≥50% = +++)

----------
- system.name: HLA-A*02:01 (Homo sapiens, UniProt P04439, D140Y/D185E/D98H/E176V/E277Q/G131W/G231S/I119V/I121R/I166T/I218V/L300P/L318F/N151K/N90K/P208A/P217A/Q86G/Q94H/R138H/R169H/T345S)
- protocol.description: MHC binding assay (UV-ligand exchange, ELISA of stabilized MHC complexes)
- study.conditions: MHC class I binding score; binding to HLA-A*02:01 ranged by peptide exchange yield (UV-ligand exchange, ELISA)
measurement.label: Peptide exchange

Before answering, review these 6 worked examples.
[
  {
    "substance": "580 (LLMENAERV; listed as Homo sapiens) [compound 580]",
    "Peptide exchange": "″++″ (≥20% = ++)"
  },
  {
    "substance": "157 (SLNDEVPEV; listed as Homo sapiens) [compound 157]",
    "Peptide exchange": "″++″ (≥20% = ++)"
  },
  {
    "substance": "53 (KMIETDILQKV; listed as Homo sapiens) [compound 53]",
    "Peptide exchange": "″++++″ (≥75% = ++++)"
  },
  {
    "substance": "386 (ILFRYPLTI; listed as Homo sapiens) [compound 386]",
    "Peptide exchange": "″+++″ (≥50% = +++)"
  },
  {
    "substance": "125 (VQIHQVAQV; listed as Homo sapiens) [compound 125]",
    "Peptide exchange": "″+++″ (≥50% = +++)"
  },
  {
    "substance": "299 (YLLETSGNL; listed as Homo sapiens) [compound 299]",
    "Peptide exchange": "″+++″ (≥50% = +++)"
  }
]

Which measured Peptide exchange value corresponds to 19 (FMVDNEAIYDI; listed as Homo sapiens) [compound 19] ? ″++++″ (≥75% = ++++)

Also need 466 (VLIANLEKL; listed as Homo sapiens) [compound 466] , thanks. ″++++″ (≥75% = ++++)

Also need 129 (GLLDGGVDILL; listed as Homo sapiens) [compound 129] , thanks. ″+++″ (≥50% = +++)

Also need 229 (RLPGPLGTV; listed as Homo sapiens) [compound 229] , thanks. ″++″ (≥20% = ++)

Also need 138 (YQYPRAILSV; listed as Homo sapiens) [compound 138] , thanks. ″+++″ (≥50% = +++)

Also need 34 (ILVEADSLWVV; listed as Homo sapiens) [compound 34] , thanks. ″+++″ (≥50% = +++)

Also need 63 (YLLPSGGSVTL; listed as Homo sapiens) [compound 63] , thanks. ″++″ (≥20% = ++)

Also need 556 (FLTDLEDLTL; listed as Homo sapiens) [compound 556] , thanks. ″+++″ (≥50% = +++)

Also need 110 (FLSQVDFEL; listed as Homo sapiens) [compound 110] , thanks. ″+++″ (≥50% = +++)

Also need 380 (TLIEDEIATI; listed as Homo sapiens) [compound 380] , thanks. ″++″ (≥20% = ++)

Also need 287 (FLNEFFLNV; listed as Homo sapiens) [compound 287] , thanks. ″+++″ (≥50% = +++)

Also need 84 (VTFGEKLLGV; listed as Homo sapiens) [compound 84] , thanks. ″++″ (≥20% = ++)

Also need 562 (YLEELPEKLKL; listed as Homo sapiens) [compound 562] , thanks. ″+++″ (≥50% = +++)
